Ref: patent US10604514B2

- System: Tau phosphorylation at Ser396 (pSer396), SH-SY5Y cells
- TEST_DETAILS: Tau phosphorylation at Ser396 (pSer396) in SH-SY5Y cells, ELISA/western blot;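 further: cell lysates probed for reduced Tau pSer396 via ELISA (colorimetric) or western blot (chemiluminescence), both with one shared pSer396 antibody, EC50 for lowering phosphorylation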
- Assay type: cell-based, human
- CONDITIONS_USED: Homo sapiens; SH-SY5Y cells, overnight (16-18 h); read-out: pSer396 Tau EC50
pEC50: −log10 of the molar value.
Listed here are compounds together with their documented pEC50.
REPORTED_METRIC: pEC50

SMILES_INPUT: Cc1nnc(-c2cc(F)c3cnc(NC(=O)[C@H]4CC[C@H](N5CCOCC5)CC4)cc3c2)s1
REPORTED_METRIC: pEC50
VAL: 6.87

SMILES_INPUT: [2H]C1([2H])OC([2H])([2H])C([2H])([2H])N(CC(=O)Nc2cc3cc(-c4cnn(C)c4)ccc3cn2)C1([2H])[2H]
REPORTED_METRIC: pEC50
VAL: 6.27

SMILES_INPUT: [2H]C([2H])(C(=O)Nc1cc2cc(-c3cncn3C)ccc2cn1)c1ccc(F)cc1
REPORTED_METRIC: pEC50
VAL: 7.12
